Entry source: the supplement of paper PMC7877785

Reported self-splicing fitness (ln) is given for each of the following sequences.
# Method: self-splicing fitness, log relative to wild type (ln ratio); higher = more splicing; Tetrahymena group I intron in knt gene, E. coli kanamycin selection, DiMSum; sequences stand for … in CUCUCU…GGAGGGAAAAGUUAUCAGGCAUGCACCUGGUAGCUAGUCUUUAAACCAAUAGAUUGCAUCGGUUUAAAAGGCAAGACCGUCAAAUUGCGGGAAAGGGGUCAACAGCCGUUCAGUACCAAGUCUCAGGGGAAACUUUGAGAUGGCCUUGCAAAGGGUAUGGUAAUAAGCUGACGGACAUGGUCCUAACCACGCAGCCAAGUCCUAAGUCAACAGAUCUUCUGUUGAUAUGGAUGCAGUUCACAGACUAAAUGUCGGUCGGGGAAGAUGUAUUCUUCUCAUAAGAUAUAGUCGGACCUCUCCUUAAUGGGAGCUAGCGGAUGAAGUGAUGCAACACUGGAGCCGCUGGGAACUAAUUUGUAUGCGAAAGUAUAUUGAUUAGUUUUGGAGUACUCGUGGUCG;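 also: selection with 25 µg/mL kanamycin versus none on LB agar overnight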
# Assay Context: 30 °C

A selection of reference data follows.
> print(dat)
       monomer.sequence  assay.result
1  CACAAGCAAUAUUACGAUAC         -3.58
2  AACGAGCAAUAUUACGCGGG         -3.64
3  CUACAGCAAUAUUACGGGCA         -2.76
4  AUGUAGCAAUAUUACGGACU        -0.734
5  GCUAAGCAAUAUUACGCUAC         -2.37
6  UAAUAGCAAUAUUACGGCAC         -2.86
7  UUCUAGCAAUAUUACGGGGU         -3.67
8  CACAAGCAAUAUUACGCGCA        -0.607

Return self-splicing fitness (ln) (reported value) for this sequence: UCACAGCAAUAUUACGGCGU
-3.04

Return self-splicing fitness (ln) (reported value) for this sequence: CCGCAGCAAUAUUACGAGCU
-2.93

Return self-splicing fitness (ln) (reported value) for this sequence: AAUGAGCAAUAUUACGGAGA
-2.59

Return self-splicing fitness (ln) (reported value) for this sequence: UCAGAGCAAUAUUACGAGUG
-2.93

Return self-splicing fitness (ln) (reported value) for this sequence: UUUAAGCAAUAUUACGACGU
-1.73

Return self-splicing fitness (ln) (reported value) for this sequence: GUAAAGCAAUAUUACGAACA
-0.969

Return self-splicing fitness (ln) (reported value) for this sequence: UACGAGCAAUAUUACGGUGG
-3.62

Return self-splicing fitness (ln) (reported value) for this sequence: GGUUAGCAAUAUUACGAACG
-0.128

----------
# Method: self-splicing fitness, log relative to wild type (ln ratio); higher = more splicing; Tetrahymena group I intron in knt gene, E. coli kanamycin selection, DiMSum; sequences stand for … in CUCUCU…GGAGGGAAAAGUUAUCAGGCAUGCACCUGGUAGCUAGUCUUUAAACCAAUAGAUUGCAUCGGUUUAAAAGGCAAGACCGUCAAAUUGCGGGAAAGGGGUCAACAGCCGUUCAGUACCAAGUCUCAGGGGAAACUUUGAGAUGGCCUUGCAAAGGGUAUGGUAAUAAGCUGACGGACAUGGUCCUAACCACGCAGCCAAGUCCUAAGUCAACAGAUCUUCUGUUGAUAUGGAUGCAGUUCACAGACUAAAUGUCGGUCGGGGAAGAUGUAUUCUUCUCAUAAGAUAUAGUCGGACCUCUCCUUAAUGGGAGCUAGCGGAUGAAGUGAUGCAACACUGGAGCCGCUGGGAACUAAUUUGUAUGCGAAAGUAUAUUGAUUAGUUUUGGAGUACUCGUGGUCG
# Assay Context: 37 °C
Reported self-splicing fitness (ln) is given for each of the following sequences.

Return self-splicing fitness (ln) (reported value) for this sequence: AUCAAGCAAUAUUACGGCUC
-0.7

Return self-splicing fitness (ln) (reported value) for this sequence: ACACAGCAAUAUUACGCGUC
-3.32

Return self-splicing fitness (ln) (reported value) for this sequence: GAGAAGCAAUAUUACGGCAC
-0.111
